Tested on: human embryonic lung (HEL) fibroblast cells
run.conditions: mock-infected HEL cells; microscopically visible alterations in cell morphology
readout: Cytotoxicity MCC (minimal cytotoxic concentration)

Example cases with answers are listed next.
>  <smiles.notation>
COC(=O)C[C@H](NC(=O)OCC1c2ccccc2-c2ccccc21)C(=O)N(Cc1ccccc1)C1(C(=O)NCc2ccccc2)CCN(Cc2ccccc2)CC1

>  <observed.value>
>100 µM

$$$$
>  <smiles.notation>
CC(C)(C)OC(=O)N[C@@H](CC(=O)O)C(=O)N(Cc1ccc(F)cc1)C1(C(=O)NCc2ccccc2)CCN(Cc2ccccc2)CC1

>  <observed.value>
>100 µM

$$$$

Request: // lookup Cytotoxicity MCC (minimal cytotoxic concentration) for COC(=O)C[C@H](NC(=O)OC(C)(C)C)C(=O)N(Cc1ccc(F)cc1)C1(C(=O)NCc2ccccc2)CCN(Cc2cccc(F)c2)CC1
Response: >100 µM
